- Test target: T1, human ANGPTL3/8 complex (human, UniProt Q9Y5C1 17-460; Q6UXH0 22-198, limits assumed)
- T1 construct: also called hANGPTL3/8 complex; ANGTPL3/8 complex
- T1 sequence 1: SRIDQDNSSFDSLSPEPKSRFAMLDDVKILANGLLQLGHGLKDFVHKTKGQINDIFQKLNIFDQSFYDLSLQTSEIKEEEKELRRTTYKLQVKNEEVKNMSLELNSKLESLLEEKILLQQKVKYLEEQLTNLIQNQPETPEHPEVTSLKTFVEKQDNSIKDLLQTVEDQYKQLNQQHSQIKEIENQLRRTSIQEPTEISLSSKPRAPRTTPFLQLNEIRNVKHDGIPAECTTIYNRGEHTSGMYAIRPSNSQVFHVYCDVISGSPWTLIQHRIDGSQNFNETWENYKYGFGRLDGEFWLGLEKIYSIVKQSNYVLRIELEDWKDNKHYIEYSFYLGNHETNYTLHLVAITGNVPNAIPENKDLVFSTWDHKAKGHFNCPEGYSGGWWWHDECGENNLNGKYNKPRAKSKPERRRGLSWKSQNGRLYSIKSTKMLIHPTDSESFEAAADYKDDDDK
- T1 sequence 2: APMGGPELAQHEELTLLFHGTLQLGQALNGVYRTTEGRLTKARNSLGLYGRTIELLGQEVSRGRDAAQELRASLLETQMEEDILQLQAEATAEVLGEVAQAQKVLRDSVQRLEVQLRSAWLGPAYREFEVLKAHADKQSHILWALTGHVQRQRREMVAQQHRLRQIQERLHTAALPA
- Test description: single point ELISA; IgG captured by anti-human Fc; biotinylated antigen at 25 nM
// OD at 560 nm lookup, one value per entry
Kindly provide the numeric value in OD 560 nm only, without the unit symbol.

Use these answered entries as a reference point.
Ab with LC variant having a D33T mutation (SEQ ID NO:23) and a HC of SEQ ID NO:6 (antibody, human IgG4 S228P, kappa, F234A L235A, V domains shown, also called D33T Ab) VH: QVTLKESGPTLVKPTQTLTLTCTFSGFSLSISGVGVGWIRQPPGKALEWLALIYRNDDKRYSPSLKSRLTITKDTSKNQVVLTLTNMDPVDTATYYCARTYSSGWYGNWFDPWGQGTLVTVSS VL: DIVMTQTPLSLPVTPGEPASISCRSSQSLLDSTDGNTYLDWYLQKPGQSPQLLIYMLSYRASGVPDRFSGSGSGTDFTLKISRVEAEDVGIYYCMQRIEFPLTFGGGTKVEIKR | 0.661
anti-ANGPTL3/8 complex Ab having a LC of SEQ ID NO:5 and a HC of SEQ ID NO:6 (antibody, human IgG4 S228P, kappa, F234A L235A, V domains shown, In the ELISA assays tested as IgG from CHO supernatants; also called the Ab) VH: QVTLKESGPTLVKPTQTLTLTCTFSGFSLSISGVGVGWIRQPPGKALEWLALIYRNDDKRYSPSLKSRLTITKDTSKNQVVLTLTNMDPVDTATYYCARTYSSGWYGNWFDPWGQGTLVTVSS VL: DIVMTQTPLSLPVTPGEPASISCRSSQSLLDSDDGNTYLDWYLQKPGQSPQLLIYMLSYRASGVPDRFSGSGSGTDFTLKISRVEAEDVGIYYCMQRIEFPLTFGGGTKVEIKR | 2.3

Next:
Problem: Would you mind telling me what OD at 560 nm value was observed for Ab with LC variant having a M56T mutation (SEQ ID NO:24) and a HC of SEQ ID NO:6 (antibody, human IgG4 S228P, kappa, F234A L235A, V domains shown) VH: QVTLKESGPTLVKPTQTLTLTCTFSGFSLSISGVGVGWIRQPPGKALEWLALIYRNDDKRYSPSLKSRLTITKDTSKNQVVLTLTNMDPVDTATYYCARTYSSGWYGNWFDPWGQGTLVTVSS VL: DIVMTQTPLSLPVTPGEPASISCRSSQSLLDSDDGNTYLDWYLQKPGQSPQLLIYTLSYRASGVPDRFSGSGSGTDFTLKISRVEAEDVGIYYCMQRIEFPLTFGGGTKVEIKR ?
Result: 0.775
